# Assay system: LHRH receptor (LHRH binding sites) on EFO-27 human ovarian cancer cells (human)
# Protocol: direct binding of 177Lu-labeled peptide to EFO-27 cells, single concentration
Non-standard residues stand in square brackets, D forms with d. *: point of attachment. Bpa = N[C@@H](Cc1ccc(C(=O)c2ccccc2)cc1)C(=O)O; d1Nal = N[C@H](Cc1cccc2ccccc12)C(=O)O; DO3A10CM = not defined here; Nicotinoyl = O=C(c1cccnc1)*; Bzgly = not defined here; dCfe4 = not defined here; azaGly = NNC(=O)O; Sar = CNCC(=O)O; iPr = CC(C)*
Please go through the items and note down their % Bound.
Give bare numbers, in %.

Binder	Parameter measured	Quantitative result
XRWSHXWXP (177Lu held by the N-terminal DO3A10CM: 177Lu-DO3A10CM-Dnal2-Arg-Trp-Ser-His-Darg-Trp-Bpa4-Pro-Da15o3pt) [^177Lu-BRU-2968]	% Bound	23.5
XHWSHXWXPX (177Lu held by the N-terminal DO3A10CM: 177Lu-DO3A10CM-Dphe-His-Trp-Ser-His-Darg-Trp-Bpa4-Pro-azaGly-NH2) [^177Lu-BRU-2894]	% Bound	3.4
XHWSHXWXPX (177Lu held by the N-terminal DO3A10CM: 177Lu-DO3A10CM-Sar-His-Trp-Ser-His-Darg-Trp-Nal2-Pro-azaGly-NH2) [^177Lu-BRU-2624]	% Bound	4.03
DO3A10CM-G[Sar][dCfe4][d1Nal]S[Metyr][dK](Nicotinoyl)LK(iPr)P[dA]-NH2 (reading uncertain; also: 177Lu complexed by DO3A10CM, printed as 177Lu-DO3A10CM-Gly-Sar-Dcfe4-Dnal1-Ser-Metyr-Dlys(Nic)-Leu-Lys(isp)-Pro-Dala-NH2) [^177Lu-BRU-2613]	% Bound	0.17

Consider now this further binder.
What measured % Bound goes with DO3A10CM-G[Bzgly]HWSH[dR]W[Bpa]P[azaGly]-NH2 (reading uncertain; also: 177Lu complexed by DO3A10CM, printed as 177Lu-DO3A10CM-Gly-Bzgly-His-Trp-Ser-His-Darg-Trp-Bpa4-Pro-azaGly-NH2) [^177Lu-BRU-2792] ? 1.28
